Biological target: UniProtKB P35557
Assay: Activation of glucokinase (unknown origin) relative to control
Assay metric: %max (%)
Enter your answer as a number in %; do not include the unit.

Query block: Provide %max value for the following molecule: O=C(Nc1nccs1)C(CC1CCCCC1)N1CCN(S(=O)(=O)C2CC2)CC1=O (racemic)
Result block: 64

Query block: Provide %max value for the following molecule: O=C(Nc1nccs1)[C@H](CC1CCCCC1)n1cnc2ccccc2c1=O
Result block: 72

Query block: Provide %max value for the following molecule: O=C(Nc1nccs1)[C@H](CC1CCCCC1)N1CCN(S(=O)(=O)c2ccco2)CC1=O
Result block: 62

Query block: Provide %max value for the following molecule: CNC(=O)c1ccc2c(=O)n([C@@H](CC3CCCCC3)C(=O)Nc3ncc(Cl)s3)cnc2c1
Result block: 58

====

Biological target: Hexokinase-4 (Homo sapiens, UniProt P35557)
Sequence (P35557 whole entry): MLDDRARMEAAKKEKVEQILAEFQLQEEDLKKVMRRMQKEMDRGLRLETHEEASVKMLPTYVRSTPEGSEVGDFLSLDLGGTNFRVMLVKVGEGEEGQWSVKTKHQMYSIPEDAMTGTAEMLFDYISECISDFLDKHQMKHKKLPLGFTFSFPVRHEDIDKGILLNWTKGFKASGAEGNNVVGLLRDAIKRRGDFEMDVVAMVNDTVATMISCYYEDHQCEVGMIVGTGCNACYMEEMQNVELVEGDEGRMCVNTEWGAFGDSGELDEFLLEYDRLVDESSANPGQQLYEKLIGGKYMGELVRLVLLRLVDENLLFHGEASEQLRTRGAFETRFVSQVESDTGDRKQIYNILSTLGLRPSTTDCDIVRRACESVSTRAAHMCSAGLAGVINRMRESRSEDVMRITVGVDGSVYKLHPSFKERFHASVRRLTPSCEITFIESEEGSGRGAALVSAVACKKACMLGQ
Assay: Activation of glucokinase (unknown origin)
For each of the compounds below, state its EC50.
Enter your answer as a number in nM; do not include the unit.

Query block: Provide EC50 value for the following compound: CCS(=O)(=O)c1cc(C)n([C@@H](CC2CCCCC2)C(=O)Nc2nccs2)c(=O)c1
Result block: 2000

Query block: Provide EC50 value for the following compound: O=C(Nc1nccs1)[C@H](CC1CCCCC1)N1CCN(S(=O)(=O)Cc2ccccc2)CC1=O
Result block: 400

Query block: Provide EC50 value for the following compound: O=C(Nc1nccs1)[C@H](CC1CCCCC1)n1cnc2ccc(F)cc2c1=O
Result block: 4000

====

Molecular target: Hexokinase-4 (Homo sapiens)
Sequence (whole entry): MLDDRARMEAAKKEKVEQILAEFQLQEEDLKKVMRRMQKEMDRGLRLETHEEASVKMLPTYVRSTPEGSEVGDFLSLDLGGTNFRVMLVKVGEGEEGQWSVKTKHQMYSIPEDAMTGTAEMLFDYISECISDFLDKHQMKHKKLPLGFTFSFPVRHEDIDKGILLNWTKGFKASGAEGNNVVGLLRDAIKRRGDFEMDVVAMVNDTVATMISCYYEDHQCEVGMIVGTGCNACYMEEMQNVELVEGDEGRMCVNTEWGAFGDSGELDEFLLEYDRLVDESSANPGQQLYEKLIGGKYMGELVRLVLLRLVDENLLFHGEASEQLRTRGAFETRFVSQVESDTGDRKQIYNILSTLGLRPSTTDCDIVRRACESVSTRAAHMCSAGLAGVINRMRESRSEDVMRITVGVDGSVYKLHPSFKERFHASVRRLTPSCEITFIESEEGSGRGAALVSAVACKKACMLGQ
Assay: Activation of glucokinase (unknown origin) relative to control
# binarize %max: threshold 40% inclusive, high side 1, low side 0

Query block: Does %max meet or surpass 40% for CS(=O)(=O)c1ccc2c(=O)n([C@@H](CC3CCCCC3)C(=O)Nc3nccs3)cnc2c1 ?
Result block: 1

Query block: Does %max meet or surpass 40% for O=C(Nc1nccs1)[C@H](Cc1ccccc1)n1c(=O)[nH]c2ccccc2c1=O ?
Result block: 0

Query block: Does %max meet or surpass 40% for O=C(Nc1nccs1)[C@H](CC1CCCCC1)N1CCN(S(=O)(=O)c2cccc(Cl)c2)CC1=O ?
Result block: 0

Query block: Does %max meet or surpass 40% for CCS(=O)(=O)c1ccc2c(=O)n([C@@H](CC3CCCCC3)C(=O)Nc3ncc(F)s3)cnc2c1 ?
Result block: 1

Query block: Does %max meet or surpass 40% for CC(C)S(=O)(=O)N1CCN([C@@H](CC2CCCCC2)C(=O)Nc2nccs2)C(=O)C1 ?
Result block: 1

Query block: Does %max meet or surpass 40% for Cc1cc(S(=O)(=O)C2CC2)cc(=O)n1[C@@H](CC1CCCC1)C(=O)Nc1ncc(Cl)s1 ?
Result block: 1

Query block: Does %max meet or surpass 40% for Cc1cc(S(=O)(=O)C2CC2)cc(=O)n1[C@@H](CC1CCCCO1)C(=O)Nc1ncc(Cl)s1 (some centres undefined) ?
Result block: 1

Query block: Does %max meet or surpass 40% for Cc1ccc2ncn([C@@H](CC3CCCCC3)C(=O)Nc3nccs3)c(=O)c2c1 ?
Result block: 1
